ASSAY METRIC: melting point

Examples with answers:
compound="COCCCNc1cc(C(Sc2ccc(Cl)cc2)c2cc(F)ccc2F)c(Cl)cn1 (stereo unspecified)" data_value="146 to 148 °C"
compound=CC(C)c1nn(C(=O)NC(C)(C)CCc2ccccc2Cl)c(=O)n1N data_value="159 °C"
compound="CCCCCCCCCCCCCCCCCCOc1cc(N(CC(=O)O)CC(=O)O)cc(S(C)=O)c1 (stereo unspecified)" data_value="147 to 149 °C"
compound=C=Cc1c(N)nc(-c2ccc(Cl)c(OC)c2F)nc1C(=O)OCc1ccccc1 data_value="119 to 121 °C"
compound="COc1ccc(O)c2c1C(=O)N(Cc1ccccc1)S2=O (stereo unspecified)" data_value="235 to 237 °C"

We next turn to a different compound, shown below.
Ask | Item under review: Cc1cn2cccc(C=Cc3ccccc3)c2n1 . Reported melting point?
Reply | 101 to 105 °C

====

Listed below: melting point values for each entry.

# count of solved cases: 6
compound=O=C(c1cccs1)c1cnn2c(-c3cccc(NC(=O)C4CCNCC4)c3)ccnc12 data_value="159 to 161 °C"
compound=CC(=O)c1ccc(-c2nc(=O)c3ccccc3s2)nc1 data_value="276 to 277 °C"
compound=O=[N+]([O-])c1cnc2ccc(F)cc2c1Nc1ccccc1F data_value="161 to 162 °C"
compound=O=C1C(c2ccccc2)=C(c2ccccc2)C(=O)N1Cc1ccccc1 data_value="123 to 124 °C"
compound=CN(C(=O)CSc1nccc(-c2ccccn2)n1)c1ccc(Cl)cc1 data_value="142 °C"
compound=Cc1ccc(S(=O)(=O)OC2=C(Br)C(=O)c3c(ccc4c3CCC(C)(C)O4)C2=O)cc1 data_value="109 to 115 °C"

Note: attention shifts to another entry.
Ask | Please look up its melting point: CC(CO)NC(=O)NCCCCC1CCSS1 (configuration not stated)
Reply | 87 to 89 °C

====

ASSAY METRIC: melting point

compound="COc1cccc(C2(c3cccc(OC)c3)CC2(C)C=O)c1 (configuration not stated)" data_value="122 to 123 °C"
compound="NC1CCCC(C(=O)N2CCC(c3[nH]nc4c3C(=O)c3c(NC(=O)NN5CCOCC5)cccc3-4)CC2)C1 (configuration not stated)" data_value="201 to 203 °C"
compound=COc1ccc(S(=O)(=O)Nc2cccnc2/C=C/c2ccc(O)cc2)cc1 data_value="217 to 219 °C"

Ask | Using the record for O=C1c2ccccc2C(=O)N1c1n[nH]c2ccc(O)cc12 , report its melting point.
Reply | > 270 °C

Ask | Item under review: O=C1c2ccccc2C(=O)N1CCc1c[nH]c2ccc(Br)cc12 . Reported melting point?
Reply | 206 to 209 °C

Ask | Requested read-out: melting point. Entry: Oc1cccc([C@H]2CCCC[C@@H]2NCCc2ccccc2)c1 (racemic)
Reply | 164 to 165 °C

Ask | Entry under review: CN(C)C(=O)c1ccccc1Sc1ccc([N+](=O)[O-])cc1[N+](=O)[O-] . Reported melting point?
Reply | 144 to 145 °C

====

Quick list: melting point per entry.

Ask | What value of measured melting point is listed for Cc1c(Cc2ccc(C(=O)O)s2)n(S(=O)(=O)c2cccc(C(C)(C)C)c2)c2ccc(C(F)(F)F)cc12 ?
Reply | 171 °C

Ask | Name the reported melting point value associated with the molecule Cc1nc(-c2ccccc2)[nH]c(=O)c1C
Reply | 205 to 207 °C

Ask | What value of measured melting point is listed for O=C(O)CCCC1=C(n2nc(-c3c(-c4ccccc4)nn4ccccc34)ccc2=O)CCCC1 ?
Reply | 145 to 147 °C

Ask | Give its melting point value. Item: CCCn1c(=O)c2[nH]c(C(C)=Cc3ccccc3)nc2n(CCC)c1=O
Reply | 194 to 196 °C

Ask | So what does the record say about melting point for CN(C)CCCc1ccc(OCCCNc2nc(N)nn2C)cc1 ?
Reply | 112 to 114 °C

Ask | Given the molecule Nc1nc2c(s1)CCN(CC=Cc1cccc3ccccc13)CC2 , what is its reported melting point?
Reply | 178 to 180 °C

Ask | So what's the measured melting point for this one? COc1ccc(N(C)c2nccc(-c3ccncc3)n2)cc1
Reply | 124 to 126 °C

Ask | I am curious: what melting point value has been reported for CCCCCS(=O)(=O)NC(=O)CCc1cc(OCCCC)nn1Cc1ccc(C(F)(F)F)cc1Cl ?
Reply | 131 to 133 °C

Ask | Fill blank: measured melting point of the molecule O=C(NCC(=O)N(c1ccccc1)c1ccccc1)Nc1cccc(O)c1 is ____.
Reply | 244 °C

Ask | // query melting point value for entry CC(=O)N(c1ccc(O)cc1)N1CCCCC1
Reply | 217 to 218 °C

====

ASSAY METRIC: melting point

Answered cases to consult:
compound=Cc1ccc(Oc2ccc(-c3cccs3)cc2O)c(O)c1 data_value="91 to 92 °C"
compound=Cc1csc2c(C(=O)O)c(=O)c3cc4c(cc3n12)OCO4 data_value="303 to 305 °C"
compound=CCOC(=O)C=CC(=O)Nc1ccc(Cl)cc1C(=O)c1ccccc1Cl data_value="113 to 114 °C"
compound="COCCNC(=O)C(NC(=O)OCc1ccccc1)c1ccc2c(c1)CCO2 (centres undefined)" data_value="90 to 110 °C"
compound=CO[C@@H]1[C@@H](OC)[C@H](C)O[C@@H](ONC(=O)c2ccc(-c3cn(-c4ccc(OC(F)(F)F)cc4)cn3)cc2)[C@@H]1OC data_value="185 °C"
compound="CN(C)C1(c2ccccc2)CCC(CNC(=O)N2CC=C(c3c[nH]c4ccccc34)CC2)CC1 (centres undefined)" data_value="112 to 115 °C"
compound=O=C(O)c1ccn(C2=CC3=C(CC2)CCc2[nH]c(=O)c(=O)n(O)c23)c1 data_value="> 300 °C"
compound=CCOC(=O)c1cnc(O)c2c(C)n[nH]c12 data_value="310 °C"

Ask | // melting point lookup, key: N=C(Cc1ccccc1)Nc1ncccc1OCc1ccccc1
Reply | 114 to 116 °C

Ask | What does the data say about its melting point? Entry: N#Cc1ccc(-n2c(=O)cc(C(F)(F)F)[nH]c2=O)cc1[N+](=O)[O-]
Reply | 135 °C

Ask | Reported melting point, compound Cc1cccc(NC(=O)CN2CCN(c3ccccn3)CC2)c1 : ____
Reply | 126 to 127 °C

Ask | If you can, please state the reported melting point value of CNC1Oc2cc(Cl)cc(-c3ccc(Cl)cc3C)c2O1 (centres undefined) .
Reply | > 250 °C

Ask | Reported melting point, compound N[C@@H]1CN2CCC1CC2 : ____
Reply | 118 to 121 °C

Ask | Value lookup for melting point; key = CCC[C@H](C)C(=O)O[C@H]1C[C@H](O)C=C2C=C[C@H](C)[C@H](CC[C@@H]3C[C@@H](O)CC(=O)O3)[C@H]21
Reply | 134 °C

====

Reported melting point by item:

Would you please look over these solved cases?
molecule=Fc1ccccc1-c1ccc2cccnc2n1 assay_metric="melting point" data_value="111 to 114 °C"
molecule=COc1ccc(C(=O)N2CCc3cc(O)c(OC)cc3C2=O)cc1 assay_metric="melting point" data_value="224 to 225 °C"

Ask | Consider the molecule Cc1sc(N)c(C(=O)c2ccc(Cl)cc2)c1C and give its measured melting point.
Reply | 122 to 123 °C

Ask | Any idea what melting point was measured for CC(C)(C)OC(=O)NCc1cccc(C=CC(=O)O)c1 ?
Reply | 121 to 123 °C

Ask | Recorded melting point for CC(C)CCn1c(=O)c2c(N3CCN(C)CC3)cc(Cl)cc2n(Cc2ccccc2)c1=O , please?
Reply | 62 to 68 °C

Ask | Which value of melting point has been reported for CN1CCC(c2c[nH]c3ccc(NC(=O)c4ccccc4)nc23)CC1 in the records?
Reply | 111 to 114 °C

Ask | Name the reported melting point value associated with the molecule CCOC(=O)CCCCC=Cc1cccc(Oc2cccc(C=O)c2)c1
Reply | 142 to 145 °C

Ask | Entry under review: CC(=O)N(C)C1=C(C#N)CC(N)(C(=O)CCCl)C=C1 (stereo not drawn) . Reported melting point?
Reply | 174 to 175 °C

Ask | Reported melting point, molecule Nc1c(Cl)cc(C(=O)NC2CCNCC2)c2c1CCO2 : ____
Reply | 190 °C

Ask | Which melting point reading was recorded for the molecule COc1cc2c(cc1OC)CN(CCOc1ccc(NC(=O)c3cccc4c(=O)c5ccccc5[nH]c34)cc1)CC2 ?
Reply | 154 °C

Ask | Name the recorded melting point for CCCc1nc(C(C)=O)c(C(=O)OCC)[nH]1 .
Reply | 76 to 78 °C

Ask | melting point lookup needed for CC(C)NC(=O)c1ccn2nc(-c3ccccc3)c(-c3ccc(=O)n(C(C)C)n3)c2c1 , thanks.
Reply | 230 to 232 °C

Ask | // returns reported melting point for input CCCCc1nn(-c2cc([N+](=O)[O-])ccc2C(F)(F)F)c(=O)n1Cc1ccc(-c2ccccc2S(=O)(=O)NC(C)(C)C)cc1F
Reply | 145 to 146 °C
